protocol-text: Solubility determination of crystal form C of tromethamine salt
Type: physicochemical
reported-conditions: 37 °C, aqueous buffer, thermodynamic from solid, USP Buffer pH 7.4, 37 degrees
metric: solubility at 24 h (µg/mL)

1. O=C(O)c1ccc2nc(CN3CCC(c4cccc5c4OC(c4ccc(Cl)cc4F)C=C5)CC3)n(CC3CCO3)c2c1 (stereo not shown) :: 254

* * *

protocol-text: Solubility determination of crystal form C of tromethamine salt
Format: physicochemical
reported-conditions: water, 37 °C, thermodynamic from solid, H2O, 37 degrees
Method: 1 to 2 mg of compound 28 was weighed into a 1.5 mL liquid phase vial, then 1 mL of pH buffer, artificial simulated gastric fluid (FaSSGF), artificial fasted-state simulated intestinal fluid (FaSSIF), artificial non-fasted-state simulated intestinal fluid (FeSSIF), and pure water were respectively added, and the mixture was placed on a constant temperature oscillator overnight at a temperature of 37 degrees. […]
metric: solubility at 24 h (µg/mL)

1) O=C(O)c1ccc2nc(CN3CCC(c4cccc5c4OC(c4ccc(Cl)cc4F)C=C5)CC3)n(CC3CCO3)c2c1 (stereo not shown) :: 66.4
